Source listed as PubChem BioAssay AID2060623.

Test system: 227483-062-R1-J1-PDC complex spheroids with HUVEC/MSC, viability
Test: Anticancer human tumor 227483-062-R1-J1-PDC patient-derived pancreatic carcinoma cell line growth inhibition [CLK]
Settings: second compound 1 µM; first compound 0.0316 µM; hits give low values
I'd appreciate it if you could supply viability, T/C values for the items below.
API: value field is a number in %; no unit string.

Please supply the value of reported viability, T/C for the item Nc1ccccc1NC(=O)c1ccc(CNC(=O)OCc2cccnc2)cc1 + CNC(=O)c1ccc(Nc2nc(OC3CCCC3)c3c(-c4ccc5nc(C)oc5c4)c[nH]c3n2)c(OC)c1
53.6

Please supply the value of reported viability, T/C for the item COc1cccc2c1C(=O)c1c(O)c3c(c(O)c1C2=O)CC(O)(C(=O)CO)CC3OC1CC(N)C(O)C(C)O1 (stereo not given) + CN1CCN(c2cc(C(=O)Nc3cc4cc(-c5cnn(C)c5)ccc4cn3)ccn2)CC1
1.69

Please supply the value of reported viability, T/C for the item Nc1ccn(C2OC(CO)C(O)C2(F)F)c(=O)n1 (stereo not given) + CNC(=O)c1ccc(Nc2nc(OC3CCCC3)c3c(-c4ccc5nc(C)oc5c4)c[nH]c3n2)c(OC)c1
49.2

Please supply the value of reported viability, T/C for the item CC(CO)NC(=O)c1cc(-c2ccc(Cl)cc2)nn(-c2cnn(C)c2)c1=O (stereo not given) + CNC(=O)c1ccc(Nc2nc(OC3CCCC3)c3c(-c4ccc5nc(C)oc5c4)c[nH]c3n2)c(OC)c1
62.6

Please supply the value of reported viability, T/C for the item COC1C=CCC(C)C(C)S(=O)(=O)NC(=O)c2ccc3c(c2)N(CC2CCC21)CC1(CCCc2cc(Cl)ccc21)CO3 (stereo not given) + CNC(=O)c1ccc(Nc2nc(OC3CCCC3)c3c(-c4ccc5nc(C)oc5c4)c[nH]c3n2)c(OC)c1
75

----------
Test system: 227483-062-R1-J1-PDC complex spheroids with HUVEC/MSC, viability
Experiment: Anticancer human tumor 227483-062-R1-J1-PDC cell line growth inhibition [CLK];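 also: spheroids exposed to compounds for seven days before readout; percent of DMSO vehicle control luminescence as 100% viability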
Conditions: second compound 1 µM; first compound 0.0316 µM; hits give low values
I'd appreciate it if you could supply viability, T/C values for the items below.
API: value field is a number in %; no unit string.

Please supply the value of reported viability, T/C for the item CC(=O)O[C@H]1C(=O)[C@@]2(C)[C@H]([C@H](OC(=O)c3ccccc3)[C@]3(O)C[C@H](OC(=O)[C@H](O)[C@@H](NC(=O)c4ccccc4)c4ccccc4)C(C)=C1C3(C)C)[C@]1(OC(C)=O)CO[C@@H]1C[C@@H]2O + CN1CCN(c2cc(C(=O)Nc3cc4cc(-c5cnn(C)c5)ccc4cn3)ccn2)CC1
1.8

Please supply the value of reported viability, T/C for the item C=C(F)C(=O)N1CCN(c2nc(OCC3CCCN3C)nc3c2CCN(c2cccc4cccc(Cl)c24)C3)CC1CC#N (stereo not given) + CN1CCN(c2cc(C(=O)Nc3cc4cc(-c5cnn(C)c5)ccc4cn3)ccn2)CC1
3.8

Please supply the value of reported viability, T/C for the item CC(CO)NC(=O)c1cc(-c2ccc(Cl)cc2)nn(-c2cnn(C)c2)c1=O (stereo not given) + CN1CCN(c2cc(C(=O)Nc3cc4cc(-c5cnn(C)c5)ccc4cn3)ccn2)CC1
2.97

Please supply the value of reported viability, T/C for the item O=C(c1cc(Cc2n[nH]c(=O)c3ccccc23)ccc1F)N1CCN(C(=O)C2CC2)CC1 + CN1CCN(c2cc(C(=O)Nc3cc4cc(-c5cnn(C)c5)ccc4cn3)ccn2)CC1
2.77

Please supply the value of reported viability, T/C for the item Cn1ncnc1[C@H]1c2n[nH]c(=O)c3cc(F)cc(c23)N[C@@H]1c1ccc(F)cc1 + CN1CCN(c2cc(C(=O)Nc3cc4cc(-c5cnn(C)c5)ccc4cn3)ccn2)CC1
1.23

Please supply the value of reported viability, T/C for the item C#Cc1c(F)ccc2cc(O)cc(-c3ncc4c(N5CC6CCC(C5)N6)nc(OCC56CCCN5CC(F)C6)nc4c3F)c12 (stereo not given) + CN1CCN(c2cc(C(=O)Nc3cc4cc(-c5cnn(C)c5)ccc4cn3)ccn2)CC1
3.51

Please supply the value of reported viability, T/C for the item CC(Nc1ccc2c(c1)OCCn1cc(N3C(=O)OCC3C(F)F)nc1-2)C(N)=O (stereo not given) + CN1CCN(c2cc(C(=O)Nc3cc4cc(-c5cnn(C)c5)ccc4cn3)ccn2)CC1
3.5

Please supply the value of reported viability, T/C for the item O=C(c1cc(Cc2n[nH]c(=O)c3ccccc23)ccc1F)N1CCN(C(=O)C2CC2)CC1 + CNC(=O)c1ccc(Nc2nc(OC3CCCC3)c3c(-c4ccc5nc(C)oc5c4)c[nH]c3n2)c(OC)c1
63.3

Please supply the value of reported viability, T/C for the item CC1COCCN1c1cc(C2(S(C)(=N)=O)CC2)nc(-c2ccnc3[nH]ccc23)n1 (stereo not given) + CN1CCN(c2cc(C(=O)Nc3cc4cc(-c5cnn(C)c5)ccc4cn3)ccn2)CC1
1.88

Please supply the value of reported viability, T/C for the item CCCS(=O)(=O)Nc1ccc(F)c(C(=O)c2c[nH]c3ncc(-c4ccc(Cl)cc4)cc23)c1F + CNC(=O)c1ccc(Nc2nc(OC3CCCC3)c3c(-c4ccc5nc(C)oc5c4)c[nH]c3n2)c(OC)c1
64.7

----------
Tested on: 227483-062-R1-J1-PDC complex spheroids with HUVEC/MSC, viability
Test: Anticancer human tumor 227483-062-R1-J1-PDC cell line growth inhibition [CLK];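 also: spheroids exposed to compounds for seven days before readout; percent of DMSO vehicle control luminescence as 100% viability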
Details: second compound 0.0316 µM; first compound 0.0316 µM; hits give low values
Sorting guide: entries reporting viability, T/C beneath 80% go in the YES pile, the rest go in the NO pile.

Is the reported viability, T/C for CC1(C)CCC(CN2CCN(c3ccc(C(=O)NS(=O)(=O)c4ccc(NCC5CCOCC5)c([N+](=O)[O-])c4)c(Oc4cnc5[nH]ccc5c4)c3)CC2)=C(c2ccc(Cl)cc2)C1 + CN1CCN(c2cc(C(=O)Nc3cc4cc(-c5cnn(C)c5)ccc4cn3)ccn2)CC1 strictly below 80%?
NO

Is the reported viability, T/C for CCc1c2c(nc3ccc(O)cc13)-c1cc3c(c(=O)n1C2)COC(=O)[C@]3(O)CC + CN1CCN(c2cc(C(=O)Nc3cc4cc(-c5cnn(C)c5)ccc4cn3)ccn2)CC1 strictly below 80%?
YES

Is the reported viability, T/C for Nc1ccccc1NC(=O)c1ccc(CNC(=O)OCc2cccnc2)cc1 + CN1CCN(c2cc(C(=O)Nc3cc4cc(-c5cnn(C)c5)ccc4cn3)ccn2)CC1 strictly below 80%?
NO

Is the reported viability, T/C for Nc1ccn(C2OC(CO)C(O)C2(F)F)c(=O)n1 (stereo unspecified) + CN1CCN(c2cc(C(=O)Nc3cc4cc(-c5cnn(C)c5)ccc4cn3)ccn2)CC1 strictly below 80%?
YES

Is the reported viability, T/C for CC1COCCN1c1cc(C2(S(C)(=N)=O)CC2)nc(-c2ccnc3[nH]ccc23)n1 (stereo unspecified) + CN1CCN(c2cc(C(=O)Nc3cc4cc(-c5cnn(C)c5)ccc4cn3)ccn2)CC1 strictly below 80%?
NO

Is the reported viability, T/C for CCCS(=O)(=O)Nc1ccc(F)c(C(=O)c2c[nH]c3ncc(-c4ccc(Cl)cc4)cc23)c1F + CNC(=O)c1ccc(Nc2nc(OC3CCCC3)c3c(-c4ccc5nc(C)oc5c4)c[nH]c3n2)c(OC)c1 strictly below 80%?
NO

Is the reported viability, T/C for O=c1[nH]cc(F)c(=O)[nH]1 + CNC(=O)c1ccc(Nc2nc(OC3CCCC3)c3c(-c4ccc5nc(C)oc5c4)c[nH]c3n2)c(OC)c1 strictly below 80%?
NO

Is the reported viability, T/C for Nc1ccn(C2OC(CO)C(O)C2(F)F)c(=O)n1 (stereo unspecified) + CNC(=O)c1ccc(Nc2nc(OC3CCCC3)c3c(-c4ccc5nc(C)oc5c4)c[nH]c3n2)c(OC)c1 strictly below 80%?
YES

Is the reported viability, T/C for Nc1ccccc1NC(=O)c1ccc(CNC(=O)OCc2cccnc2)cc1 + CNC(=O)c1ccc(Nc2nc(OC3CCCC3)c3c(-c4ccc5nc(C)oc5c4)c[nH]c3n2)c(OC)c1 strictly below 80%?
NO

Is the reported viability, T/C for COc1cccc2c1C(=O)c1c(O)c3c(c(O)c1C2=O)CC(O)(C(=O)CO)CC3OC1CC(N)C(O)C(C)O1 (stereo unspecified) + CNC(=O)c1ccc(Nc2nc(OC3CCCC3)c3c(-c4ccc5nc(C)oc5c4)c[nH]c3n2)c(OC)c1 strictly below 80%?
NO

----------
Tested on: 227483-062-R1-J1-PDC complex spheroids with HUVEC/MSC, viability
Test: Anticancer human tumor 227483-062-R1-J1-PDC cell line growth inhibition [CLK];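 also: spheroids exposed to compounds for seven days before readout; percent of DMSO vehicle control luminescence as 100% viability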
Settings: second compound 1 µM; first compound 0.01 µM; hits give low values
I'd appreciate it if you could supply viability, T/C values for the items below.
API: value field is a number in %; no unit string.

Please supply the value of reported viability, T/C for the item CCc1c2c(nc3ccc(O)cc13)-c1cc3c(c(=O)n1C2)COC(=O)[C@]3(O)CC + CN1CCN(c2cc(C(=O)Nc3cc4cc(-c5cnn(C)c5)ccc4cn3)ccn2)CC1
1.1

Please supply the value of reported viability, T/C for the item Cn1ncnc1[C@H]1c2n[nH]c(=O)c3cc(F)cc(c23)N[C@@H]1c1ccc(F)cc1 + CN1CCN(c2cc(C(=O)Nc3cc4cc(-c5cnn(C)c5)ccc4cn3)ccn2)CC1
2.07

Please supply the value of reported viability, T/C for the item Cn1ncnc1[C@H]1c2n[nH]c(=O)c3cc(F)cc(c23)N[C@@H]1c1ccc(F)cc1 + CNC(=O)c1ccc(Nc2nc(OC3CCCC3)c3c(-c4ccc5nc(C)oc5c4)c[nH]c3n2)c(OC)c1
67.4

Please supply the value of reported viability, T/C for the item CCc1c2c(nc3ccc(O)cc13)-c1cc3c(c(=O)n1C2)COC(=O)[C@]3(O)CC + CNC(=O)c1ccc(Nc2nc(OC3CCCC3)c3c(-c4ccc5nc(C)oc5c4)c[nH]c3n2)c(OC)c1
54

Please supply the value of reported viability, T/C for the item CCN1CCN(Cc2ccc(Nc3ncc(F)c(-c4cc(F)c5nc(C)n(C(C)C)c5c4)n3)nc2)CC1 + CN1CCN(c2cc(C(=O)Nc3cc4cc(-c5cnn(C)c5)ccc4cn3)ccn2)CC1
2.07

Please supply the value of reported viability, T/C for the item COc1c(OCCCN2CCOCC2)ccc2c3n(c(=NC(=O)c4cnc(N)nc4)nc12)CCN3 + CNC(=O)c1ccc(Nc2nc(OC3CCCC3)c3c(-c4ccc5nc(C)oc5c4)c[nH]c3n2)c(OC)c1
56.7

Please supply the value of reported viability, T/C for the item COc1c(OCCCN2CCOCC2)ccc2c3n(c(=NC(=O)c4cnc(N)nc4)nc12)CCN3 + CN1CCN(c2cc(C(=O)Nc3cc4cc(-c5cnn(C)c5)ccc4cn3)ccn2)CC1
1.44

Please supply the value of reported viability, T/C for the item CCN1CCN(Cc2ccc(Nc3ncc(F)c(-c4cc(F)c5nc(C)n(C(C)C)c5c4)n3)nc2)CC1 + CNC(=O)c1ccc(Nc2nc(OC3CCCC3)c3c(-c4ccc5nc(C)oc5c4)c[nH]c3n2)c(OC)c1
72.4
